FYI, the data here is from patent US20240425589A1.

Reported values of CD3 Kon for individual entries
Biological target: T1, recombinant human CD3 (human CD3eg linker) (Homo sapiens, UniProt P07766+P09693)
T1 construct: made in house; host or cells: FreeStyle293F
T1 sequence (P07766+P09693 fused): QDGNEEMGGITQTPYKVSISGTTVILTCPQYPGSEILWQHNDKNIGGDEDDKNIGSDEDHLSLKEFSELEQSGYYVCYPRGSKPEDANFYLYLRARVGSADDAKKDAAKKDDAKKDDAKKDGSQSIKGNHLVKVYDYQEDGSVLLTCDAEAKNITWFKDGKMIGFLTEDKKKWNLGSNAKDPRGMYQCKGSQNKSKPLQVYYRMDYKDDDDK
Assay: Biacore T200 SPR affinity of Dual-Fab antibodies to human CD3
Format: binding
Conditions: 25 degrees C, pH 7.4

# Molecule, CD3 Kon / M⁻¹ s⁻¹
records = [
    ("H183L072: parental Dual-Fab (CD3/CD137), VH SEQ ID NO 90, VL SEQ ID NO 142 (antibody, V domains shown) VH: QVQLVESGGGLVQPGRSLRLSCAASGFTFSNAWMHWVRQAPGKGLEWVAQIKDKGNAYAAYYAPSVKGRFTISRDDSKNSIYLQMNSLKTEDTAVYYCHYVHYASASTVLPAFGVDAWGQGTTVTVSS VL: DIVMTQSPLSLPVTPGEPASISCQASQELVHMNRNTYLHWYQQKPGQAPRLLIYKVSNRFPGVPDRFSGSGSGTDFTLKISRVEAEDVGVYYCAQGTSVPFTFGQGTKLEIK", 35400),
    ("H1550L0918: affinity matured Dual-Fab variant, VH SEQ ID NO 92, VL SEQ ID NO 144 (antibody, V domains shown) VH: QVQLVESGGGLVQPGRSLRLSCAASGFKFSNVWMHWVRQAPGKGLEWVAQIKDKYNAYAAYYAPSVKGRFTISRDDSKNSIYLQMNSLKTEDTAVYYCHYIHYASASTLLPAFGVDAWGQGTTVTVSS VL: DIVMTQSPLSLPVTPGEPASISCQPSQEVVHMNNVVYLHWYQQKPGQAPRLLIYKVSNRFPGVPDRFSGSGSGTDFTLKISRVEAEDVGVYYCAQGTSHPFTFGQGTKLEIK", 72000),
    ("H1649L0581: affinity matured Dual-Fab variant, VH SEQ ID NO 97, VL SEQ ID NO 143 (antibody, V domains shown) VH: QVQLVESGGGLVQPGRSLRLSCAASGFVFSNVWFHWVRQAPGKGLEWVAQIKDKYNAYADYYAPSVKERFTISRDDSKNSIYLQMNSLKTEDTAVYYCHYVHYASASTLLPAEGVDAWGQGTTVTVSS VL: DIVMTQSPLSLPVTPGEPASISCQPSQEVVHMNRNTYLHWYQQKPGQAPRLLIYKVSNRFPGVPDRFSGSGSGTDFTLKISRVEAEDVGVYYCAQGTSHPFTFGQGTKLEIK", 75000),
    ("H1610L0939: affinity matured Dual-Fab variant, VH SEQ ID NO 94, VL SEQ ID NO 145 (antibody, V domains shown) VH: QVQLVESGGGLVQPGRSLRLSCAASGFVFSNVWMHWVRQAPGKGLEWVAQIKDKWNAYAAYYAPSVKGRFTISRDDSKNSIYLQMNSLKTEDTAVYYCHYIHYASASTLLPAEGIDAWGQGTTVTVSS VL: DIVMTQSPLSLPVTPGEPASISCQPSQEVVHMNRNTYLHWYQQKPGQAPRLLIYKVSNVFPGVPDRFSGSGSGTDFTLKISRVEAEDVGVYYCAQGTHHPFTFGQGTKLEIK", 50000),
]
